Some binders, each annotated with its measured EC50 GLP-1R, CRE luciferase reporter gene assay in BHK cells.
- TARGET: human GLP-1 receptor (human, UniProt P43220 24-463)
- EXPERIMENTAL DETAILS: cell-based or functional assay
Numbered stars: 1 amine (or outer) side, 2 acyl side, 3 side chain; on linkers, the order of the positions; unused ones are H or OH. Square brackets hold non-standard residues; d marks the D form. Side chains are listed from the residue outwards. Ends that are not written are not given here. * marks the point of attachment. C18 diacid = O=C(O)CCCCCCCCCCCCCCCCC(=O)*; γGlu = O=C(O)[C@H](CCC(=O)[*:2])N[*:1]; Ac4c = NC1(C(=O)O)CCC1; Aib = CC(C)(N)C(=O)O
RESULT TYPE: EC50 GLP-1R, CRE luciferase reporter gene assay in BHK cells (pM)

[[record]]
binder = "H[Ac4c]QGTFTSDLSKYLDLKRAREFVQWLLK([Gly-Ser-Glu-Gly-Ser-γGlu-γGlu-C18 diacid])T-NH2"
reported = 44

[[record]]
binder = "H[Ac4c]QGTFTSDLSKYLEERRARDFVQWLLK([Gly-Ser-Glu-Gly-Ser-γGlu-γGlu-C18 diacid])T-NH2"
reported = 5.8

[[record]]
binder = "H[Ac4c]HGTFTSDLSKYLESRRAQDFVQWLLK([Gly-Ser-Glu-Gly-Ser-γGlu-γGlu-C18 diacid])T-NH2"
reported = 3

[[record]]
binder = "H[Aib]QGTFTSDLSKYLESKRAREFVQWLLKT-NH2 (not fully specified)"
reported = 11.8

[[record]]
binder = "H[Aib]QGTFTSDLSKYLESKRAREFVQWLLK([Gly-Ser-Glu-Gly-Ser-γGlu-γGlu-C18 diacid])T-NH2"
reported = 5.7

[[record]]
binder = "H[Aib]QGTFTSDLSKYLDKRAAREFVAWLLNT-NH2 (not fully specified)"
reported = 2.3

[[record]]
binder = "H[Aib]QGTFTSDLSKYLDLRRAQDFVQWLLK([γGlu-γGlu-Ser-Glu-Ser-γGlu-γGlu-C18 diacid])T-NH2"
reported = 11

[[record]]
binder = "H[Aib]HGTFTSDLSKYLESRRARDFVQWLLK([Gly-Ser-Glu-Gly-Ser-γGlu-γGlu-C18 diacid])T-NH2"
reported = 4

